Values compiled from ChEMBL document CHEMBL5058577.

# reported Population Fragmented Nuclei (%); entries follow
# Test system: HEK-293T
# TEST METHOD NOTES: Multiplex assay against HEK293T
# Type: toxicity, cell-based
# TEST CONDITIONS: human, 48 h, 1 µM, compound concentration 1 uM, replicate 2
Write down the numeric answer in % and omit the unit.

Known Population Fragmented Nuclei (%) results, listed for orientation:
>  <COMPOUND>
O=C(NCCO)c1cccc(-c2cc(Nc3ccc(OC(F)(F)F)cc3)ncn2)c1

>  <UNITS OF MEASURE>
%

>  <OBS VALUE>
9

$$$$
>  <COMPOUND>
CCNC1(C(N)=O)CCN(c2ncnc3c2nc(-c2ccccc2Cl)n3-c2ccc(Cl)cc2)CC1

>  <UNITS OF MEASURE>
%

>  <OBS VALUE>
8

$$$$
>  <COMPOUND>
O=S(=O)(c1ccccc1)c1cnc2c(N3CCNCC3)cccc2c1 [INTEPIRDINE]

>  <UNITS OF MEASURE>
%

>  <OBS VALUE>
13

$$$$

Exercise: Endpoint output: Population Fragmented Nuclei (%) of Cc1ccccc1C(=O)Nc1ccc(C(=O)N2CCCC(N(C)C)c3ccccc32)cc1.Cl (stereo not drawn) . Value?
Key: 10

Exercise: Endpoint output: Population Fragmented Nuclei (%) of "CN(C)c1ccnc2sc3c(=O)n(N4CCCCCC4)cnc3c12" . Value?
Key: 11

Exercise: Endpoint output: Population Fragmented Nuclei (%) of "CCOc1c2c(c(OCC)c3ncccc13)CN(c1ccc(CS(=O)(=O)NC(=O)Cc3ccccc3OC)cc1C)C2=O" . Value?
Key: 11

Exercise: Endpoint output: Population Fragmented Nuclei (%) of "Oc1c(CN2CCN(c3ccccn3)CC2)cc(Cl)c2cccnc12" . Value?
Key: 10

Exercise: Endpoint output: Population Fragmented Nuclei (%) of "N[C@@]1(C(=O)O)CO[C@H]2[C@H](C(=O)O)[C@H]21" . Value?
Key: 10

Exercise: Endpoint output: Population Fragmented Nuclei (%) of "CN(C)CCCc1cc(C(=O)Nc2ccc(-c3ccncc3)cc2)ccc1O.Cl.Cl" . Value?
Key: 16

Exercise: Endpoint output: Population Fragmented Nuclei (%) of "Cc1ccc(-c2ccc(F)cc2COc2ccc(CCC(=O)O)cc2)cc1" . Value?
Key: 14

Exercise: Endpoint output: Population Fragmented Nuclei (%) of "CCCC(CCC)C(=O)O" . Value?
Key: 10

Exercise: Endpoint output: Population Fragmented Nuclei (%) of "CC(C)(C)c1ccc(S(=O)(=O)Nc2ccc(Cl)cc2C(=O)c2cc[n+]([O-])cc2)cc1" . Value?
Key: 14

---

# Tested on: Fibroblast
# TEST METHOD NOTES: Multiplex assay against human fibroblast
# Format: toxicity, cell-based
# TEST CONDITIONS: 12 h, 1 µM, compound concentration 1 uM, replicate 2
OBSERVABLE: Population Mitochondria Different-Phenotype (%)
Write down the numeric answer in % and omit the unit.

Known Population Mitochondria Different-Phenotype (%) results, listed for orientation:
>  <MOLECULE>
CC(C)(C)c1ccc(S(=O)(=O)Nc2ccc(Cl)cc2C(=O)c2cc[n+]([O-])cc2)cc1

>  <OBS VALUE>
1

$$$$
>  <MOLECULE>
COc1c(C)cc(NC(=O)c2nn(Cc3ccc(F)cc3)c3c2CN(C(=O)c2ccc[nH]2)C[C@]3(C)C(N)=O)cc1C

>  <OBS VALUE>
11

$$$$
>  <MOLECULE>
CNC[C@H](O)c1ccc(O)c(O)c1 [EPINEPHRINE]

>  <OBS VALUE>
7

$$$$

Exercise: Endpoint output: Population Mitochondria Different-Phenotype (%) of COc1ccc2c(c1)C(C(=O)N(Cc1ccc(N(C)C)cc1)c1ccc(C(C)C)cc1)CCC2.Cl (centres undefined) . Value?
Key: 15
